Listed molecules paired with reported CO2 permeability
Respond with a number, then the unit of measure.

Task item: I am curious: what CO2 permeability value has been reported for *OC(=O)Oc1ccc(C2(c3ccc(*)cc3)c3ccccc3-c3ccccc32)cc1 (repeat unit) ?
Reply: 15.1 Barrer

Task item: Lookup *c1ccc(Oc2ccc(C(c3ccc(Oc4ccc(N5C(=O)c6ccc(C(=O)c7ccc8c(c7)C(=O)N(*)C8=O)cc6C5=O)cc4C(F)(F)F)cc3)(C(F)(F)F)C(F)(F)F)cc2)c(C(F)(F)F)c1 (repeat unit)
Reply: 8.04 Barrer

Task item: Lookup */C=C/c1ccc(*)cc1[Si](C)(C)CCCCCCCC (repeat unit)
Reply: 60 Barrer

Task item: Lookup *Nc1ccc(C(=O)c2ccc(NC(=O)c3cccc(C(*)=O)c3)cc2)cc1 (repeat unit)
Reply: 0.32 Barrer

Task item: Lookup *Oc1ccc(Oc2ccc(C(=O)c3ccc(*)cc3)cc2)c(-c2cccc(C(F)(F)F)c2)c1 (repeat unit)
Reply: 1.5 Barrer

Each recorded value in this set is attributed to a polymer gas permeability compilation.
